molecular target: GST-fused Cα-subunit of mouse PKA (GST-PKAC) (mouse, UniProt P05132 1-351); assay: pull-down
Property: Kd

Q: Could you share which Kd value was measured for His8-DCRD-Myc (domain or fragment) RQFHGSASSLVEAVLISEGLGQFAQDPKFIEVTTQELADACDLTIEEMENAADDILSGGARQS ?
Ans: < 1 µM
